TEST_DETAILS: Kinetic solubility analysis
Assay type: physicochemical
DETAILS: PBS, pH 7.4, aqueous buffer, kinetic from dmso stock
READOUT_NAME: solubility at 24 h

[ask] Return solubility at 24 h for the following compound: O=C1CCC(N2C(=O)c3cccc(NCCCCNC(=O)c4cccc(C#Cc5cc(NC(=O)Nc6ccnc(Cl)c6)ccn5)c4)c3C2=O)C(=O)N1 (stereo not shown)
[reply] < 1.56 µM
